- Measured target: sheep Cyclooxygenase-2 (Cox2), PTGS2 (gene 443460)
- Protocol: NVS_ENZ_oCOX2: NovaScreen (NVS) Enzymatic Assay for sheep Cyclooxygenase-2 (Cox2) (AID 2283231)
Inconclusive results are not listed. The source made the active and inactive calls. Rule for the calls: active = hit-call score of the fitted dose curve at least 0.9, where 1 is the maximum; inconclusive = response in the unintended direction; inactive = score below 0.9.
Classes used: 1 (active), 0 (inactive)

Molecule: CC[C@H](C)[C@H]1O[C@]2(C=C[C@@H]1C)C[C@@H]1C[C@@H](C/C=C(\C)[C@@H](O[C@H]3C[C@H](OC)[C@@H](O[C@H]4C[C@H](OC)[C@@H](O)[C@H](C)O4)[C@H](C)O3)[C@@H](C)/C=C/C=C3\CO[C@@H]4[C@H](O)C(C)=C[C@@H](C(=O)O1)[C@]34O)O2 (tested in a mixture with another compound)
Measured target: sheep Cyclooxygenase-2 (Cox2), PTGS2 (gene 443460)
Class label: 1
--
Molecule: C#CCN1C(=O)COc2cc(F)c(N3C(=O)C4=C(CCCC4)C3=O)cc21
Measured target: sheep Cyclooxygenase-2 (Cox2), PTGS2 (gene 443460)
Class label: 0
--
Molecule: O=S(=O)(O)C(F)(F)C(F)(F)C(F)(F)C(F)(F)C(F)(F)C(F)(F)C(F)(F)C(F)(F)F
Measured target: sheep Cyclooxygenase-2 (Cox2), PTGS2 (gene 443460)
Class label: 1
--
Molecule: CCCN(CCC)c1c([N+](=O)[O-])cc(C(F)(F)F)cc1[N+](=O)[O-]
Measured target: sheep Cyclooxygenase-2 (Cox2), PTGS2 (gene 443460)
Class label: 0
--
Molecule: Oc1cc(Cl)ccc1Oc1ccc(Cl)cc1Cl
Measured target: sheep Cyclooxygenase-2 (Cox2), PTGS2 (gene 443460)
Class label: 1

----------
- Protocol: CCTE_Shafer_MEA_dev_per_network_spike_spike_percent: CCTE's Neural Network Formation Assay for Percent of Spikes in a Network Spike, Shafer Lab (AID 2284054)
The source made the active and inactive calls. The calls were made as follows: active = hit-call score of the fitted dose curve at least 0.9, where 1 is the maximum; inactive = score below 0.9.
Outcomes: active, inactive

Compound: COP(=S)(OC)Oc1ccc([N+](=O)[O-])cc1
Class label: inactive

Compound: ClC1C(Cl)C(Cl)C(Cl)C(Cl)C1Cl (stereo unspecified)
Class label: inactive

Compound: O=C(O)C(F)(F)C(F)(F)C(F)(F)C(F)(F)C(F)(F)C(F)(F)C(F)(F)F
Class label: inactive

Compound: Oc1cc(Cl)ccc1Oc1ccc(Cl)cc1Cl
Class label: active

Compound: O=S1OCC2C(CO1)C1(Cl)C(Cl)=C(Cl)C2(Cl)C1(Cl)Cl (stereo unspecified)
Class label: active

Compound: CC1(c2ccc(Oc3ccccc3)cc2)OC(=O)N(Nc2ccccc2)C1=O (stereo unspecified)
Class label: active

----------
- Measured target: Hepatocyte nuclear factor 6 (Homo sapiens) (UniProt Q9UBC0)
- Sequence (Q9UBC0 whole entry, looked up): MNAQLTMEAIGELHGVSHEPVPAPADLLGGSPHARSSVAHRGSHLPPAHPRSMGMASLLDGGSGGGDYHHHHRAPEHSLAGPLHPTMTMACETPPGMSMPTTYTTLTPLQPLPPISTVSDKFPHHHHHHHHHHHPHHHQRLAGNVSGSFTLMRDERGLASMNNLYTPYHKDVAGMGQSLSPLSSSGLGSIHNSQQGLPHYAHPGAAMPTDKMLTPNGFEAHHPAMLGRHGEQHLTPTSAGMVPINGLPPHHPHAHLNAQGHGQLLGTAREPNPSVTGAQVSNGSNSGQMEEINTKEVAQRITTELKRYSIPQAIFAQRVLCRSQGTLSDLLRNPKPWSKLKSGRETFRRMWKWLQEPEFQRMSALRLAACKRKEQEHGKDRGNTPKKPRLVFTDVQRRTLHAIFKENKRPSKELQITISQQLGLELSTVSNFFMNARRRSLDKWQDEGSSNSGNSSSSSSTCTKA
- Protocol: ATG_HNF6_CIS: Attagene CIS-FACTORIAL HepG2 Assay for human Hepatocyte Nuclear Factor 6 (HNF6) (AID 2282952)
- Protocol conditions: HepG2 Attagene cis-factorial HNF6 reporter transcription; actives raise or lower the signal
Activity calls are given as the source filed them. The calls were made as follows: active = hit-call score of the fitted dose curve at least 0.9, where 1 is the maximum; inactive = score below 0.9.

Molecule: CCN(CC)C(=O)SCc1ccc(Cl)cc1
Measured target: Hepatocyte nuclear factor 6 (Homo sapiens) (UniProt Q9UBC0)
outcome: inactive
--
Molecule: Cc1cc(C)nc(NC(=O)NS(=O)(=O)c2ccccc2C(=O)OC2COC2)n1
Measured target: Hepatocyte nuclear factor 6 (Homo sapiens) (UniProt Q9UBC0)
outcome: inactive
--
Molecule: CCC(C)(NC(=O)c1cc(Cl)c(C)c(Cl)c1)C(=O)CCl (stereo not drawn)
Measured target: Hepatocyte nuclear factor 6 (Homo sapiens) (UniProt Q9UBC0)
outcome: inactive
